System: SK-MEL-28 melanoma
assay.notes: NCI tumour cell line growth inhibition, 48 h
Label 1 (yes) when TGI is at or above 20 µM; otherwise label 0 (no).

Here's what some known entries look like.
{"columns": ["molecule", "assigned.class"],
 "data": [
  ["CCOP1(=O)C=C(C)C(Cl)=C(C)C1 (stereo not drawn)", "1 (yes)"],
  ["NNC(=O)c1c(-c2cccnc2)cnc2ccccc12", "1 (yes)"],
  ["COC(=O)c1cncc(/C=C/c2c(C)cc(O)cc2C)c1", "1 (yes)"],
  ["COc1ccc(-c2nc(/C=C3\\SC(=NCc4ccccc4)NC3=O)c3ccccn23)cc1", "0 (no)"],
  ["C/C(=N/N=C(\\[O-])c1ccncc1)C(F)(F)F.C/C(=N\\N=C(/[O-])c1ccncc1)C(F)(F)F.[Ni+2]", "0 (no)"],
  ["CCCCCCCC1(N=[N+]=[N-])C(=O)Nc2ccccc2C1=O (stereo not drawn)", "1 (yes)"],
  ["C[N+]12C=CC=C1C(N1CCCC1)c1scc(-c3ccccc3)c12 (stereo not drawn)", "1 (yes)"]
]}

Lab note: next molecule to report on.
Request: State whether the measured TGI reaches 20 µM, counting equality as reaching it, for CC1(C)CC[C@]2(C)CC[C@]3(C)C(=CC[C@@H]4[C@@]5(C)CCC(=O)C(C)(C)[C@@H]5[C@H](O)C[C@]43C)[C@@H]2C1
Response: 1 (yes)

----------
List of TGI values.
Tested on: COLO 205 colon
assay.notes: NCI tumour cell line growth inhibition, 48 h
Number only, in µM; omit the unit.

Sample answers from the record:
{"columns": ["compound", "unit.descriptor", "result.number"],
 "data": [
  ["Oc1cccc2ccc(N/N=C/c3cc(CN4CCOCC4)c(O)c4ncccc34)nc12", "µM", 1.6],
  ["Cc1cc(C#Cc2ccc(C(C)(C)C)cc2)ccc1-n1c(/C=C/c2ccc(O)cc2O)nc2ccccc2c1=O", "µM", 9.59],
  ["CCOP1(=O)C=C(C)C(Cl)=C(C)C1 (stereo not given)", "µM", 24.4]
]}

Request: Requested field: TGI. Item: O=C(CCCCCCN1CC(=O)N2[C@@H](c3ccc(Cl)c(Cl)c3)c3[nH]c4ccccc4c3C[C@H]2C1=O)NO
Response: 10.1

----------
Tested on: NCI/ADR-RES ovarian
assay.notes: NCI tumour cell line growth inhibition, 48 h
List of TGI values.

{"columns": ["compound", "TGI"],
 "data": [
  ["C/C(=C\\c1cnc(C)s1)[C@@H]1C[C@@H]2O[C@@H]2CCC[C@H](C)[C@H](O)[C@@H](C)C(=O)C(C)(C)[C@@H](O)CC(=O)O1", "> 100 µM"]
]}

Request: Requested field: TGI. Item: CCOC(=O)c1nc2cc(C(F)(F)F)ccc2nc1Nc1ccc(OC)cc1
Response: > 100 µM

Request: Then this compound: Nc1ccc2c(c1)nc1n2C(c2c(F)cccc2F)SC1 (stereo not given)
Response: > 100 µM

----------
System: IGROV1 ovarian
assay.notes: NCI tumour cell line growth inhibition, 48 h
readout.name: TGI

Sample answers from the record:
{"columns": ["compound", "target.under.test", "result"],
 "data": [
  ["COC(=O)/C=C(\\CC(=O)OC)n1nnnc1[C@@H]1C[C@H](COC(c2ccccc2)(c2ccccc2)c2ccccc2)[C@H]2OC(C)(C)O[C@H]21", "IGROV1 ovarian", "> 100 µM"],
  ["O[C@@]12Cc3c([nH]c4ccccc34)[C@@H]3Oc4cccc5c4[C@@]31CCN(CC1CC1)[C@@H]2C5", "IGROV1 ovarian", "45.4 µM"],
  ["CON(C)c1nc(N(C)OC)nc(N(C)OC)n1", "IGROV1 ovarian", "> 10 µM"]
]}

The record that follows has no TGI shown yet.
Request: Requested field: TGI. Item: c1cnc2c(c1)ccc1cccnc12
Response: > 100 µM

----------
Tested on: NCI/ADR-RES ovarian
assay.notes: NCI tumour cell line growth inhibition, 48 h
readout.name: TGI

Request: Requested field: TGI. Item: CSC(=S)Nc1cccc(C)n1
Response: > 100 µM

Request: Then this compound: COc1ccc(OC)c(CNc2ccc(C(=O)O)cc2)c1
Response: > 100 µM

Request: Then this compound: C=C1CC(c2ccc(OCCCN3C(=O)c4ccccc4C3=O)cc2)OC1=O (stereo unspecified)
Response: > 95.1 µM

Request: Then this compound: c1ccc2c(c1)Nc1ccncc1S2
Response: > 100 µM

Request: Then this compound: CC1OC(OC2C(O)CC(OC3C(O)CC(OC4CCC5(C)C(CCC6C5CC(O)C5(C)C(C7=CC(=O)OC7)CCC65O)C4)OC3C)OC2C)CC(O)C1O (stereo unspecified)
Response: 0.145 µM

Request: Then this compound: COc1cc2c(c(O)c1OC)C(=O)[C@@H]1CCC(=O)N1C2
Response: > 100 µM

----------
Tested on: A498 renal
assay.notes: NCI tumour cell line growth inhibition, 48 h
List of GI50 values.

{"columns": ["compound", "readout.name", "result"],
 "data": [
  ["COC(=O)c1cc2c(cc1Cl)SC1=NN(C)C(N(C)C)N1S2(=O)=O (stereo unspecified)", "GI50", "> 100 µM"]
]}

The record that follows has no GI50 shown yet.
Request: Requested field: GI50. Item: CSc1nc2sc3c(c2c(=O)n1-c1ccc(C(C)C)cc1)CCC(=O)C3
Response: 20.4 µM

----------
Test system: K-562 leukemia
assay.notes: NCI tumour cell line growth inhibition, 48 h
List of GI50 values.

{"columns": ["compound", "target.under.test", "GI50"],
 "data": [
  ["O=C(/C=C/c1cccc(O)c1)c1cccc(-n2cc(-c3ccccc3)[nH]c2=O)c1", "K-562 leukemia", "2520 nM"],
  ["Cc1cc(C)nc(SC2=C(Nc3cc(Cl)ccc3O)C(=O)N(Cc3ccccc3)C2=O)n1", "K-562 leukemia", "5530 nM"],
  ["COC(=O)c1cc2c(cc1Cl)SC1=NN(C)C(N(C)C)N1S2(=O)=O (stereo unspecified)", "K-562 leukemia", "> 100000 nM"]
]}

Request: Requested field: GI50. Item: CCc1cccc(C)c1NC(=O)c1sc2nc3c(cc2c1N)C(=O)CCC3
Response: 422 nM

Request: Then this compound: Cn1cc(C2=C(c3cccc(OC[C@@H](O)CO)c3)C(=O)NC2=O)c2ccccc21
Response: 17300 nM

----------
Tested on: BT-549 breast
assay.notes: NCI tumour cell line growth inhibition, 48 h
List of TGI values.
Number only, in µM; omit the unit.

Sample answers from the record:
{"columns": ["compound", "target.under.test", "TGI [µM]"],
 "data": [
  ["O=C(/C=C/c1ccc(Oc2cc(C(=O)/C=C/c3ccc(O)cc3)c(O)cc2O)cc1)c1ccc(O)cc1O", "BT-549 breast", 39.3],
  ["CC(=O)NC1C(OCc2ccccc2)OC(CO)C(O)C1OC(C)C(=O)NC(C)C(=O)NC(CCC(=O)NCCCCNc1c2ccccc2nc2cccc([N+](=O)[O-])c12)C(N)=O (stereo not given)", "BT-549 breast", 0.531],
  ["CCCCCCCC1(N=[N+]=[N-])C(=O)Nc2ccccc2C1=O (stereo not given)", "BT-549 breast", 30.4]
]}

The record that follows has no TGI shown yet.
Request: Observed TGI on BT-549 breast for Cc1cc(C#Cc2ccc(C(C)(C)C)cc2)ccc1-n1c(/C=C/c2ccc(O)cc2O)nc2ccccc2c1=O , please.
Response: 33.1

----------
System: XF 498 CNS
assay.notes: NCI tumour cell line growth inhibition, 48 h
readout.name: TGI

{"columns": ["compound", "target.under.test", "TGI"],
 "data": [
  ["CC(=O)OCCOCNC(=S)N/N=C/c1cc(Br)cs1", "XF 498 CNS", "> 100 µM"],
  ["CC1(C)CC(=O)C(/C(=N/NC(=S)NN)C(=O)Nc2nc3ccc([N+](=O)[O-])cc3s2)C(=O)C1", "XF 498 CNS", "> 100 µM"]
]}

Request: Requested field: TGI. Item: Cn1c(-c2ccccc2)cc(-c2cccs2)c1-c1cccs1
Response: > 100 µM

Request: Then this compound: Cc1cc(C)nc(NS(=O)(=O)c2ccc(NC(=O)c3cccc4c(Nc5ccc(S(=O)(=O)Nc6cc(C)on6)cc5)c5ccccc5nc34)cc2)n1
Response: 47.6 µM

----------
Tested on: OVCAR-4 ovarian
assay.notes: NCI tumour cell line growth inhibition, 48 h
readout.name: TGI

Sample answers from the record:
{"columns": ["molecule", "target.under.test", "TGI"],
 "data": [
  ["COC(=O)c1cncc(/C=C/c2c(C)cc(O)cc2C)c1", "OVCAR-4 ovarian", "> 25 µM"],
  ["COC(=O)[C@]1(NC(=O)c2ccccc2)C[C@H]1C=O", "OVCAR-4 ovarian", "> 100 µM"],
  ["CCN1CCC(O)(/C=C/c2ccccc2C)C(C(=O)/C=C/c2ccccc2C)C1 (stereo not given)", "OVCAR-4 ovarian", "12.5 µM"]
]}

Request: Requested field: TGI. Item: O=C(c1ccccc1)N(C(=O)c1ccccc1)c1nc(SCc2ccccc2)ns1
Response: > 100 µM
